Target: PIK3CB (human) (UniProt P42338)
Sequence (P42338 whole entry, looked up): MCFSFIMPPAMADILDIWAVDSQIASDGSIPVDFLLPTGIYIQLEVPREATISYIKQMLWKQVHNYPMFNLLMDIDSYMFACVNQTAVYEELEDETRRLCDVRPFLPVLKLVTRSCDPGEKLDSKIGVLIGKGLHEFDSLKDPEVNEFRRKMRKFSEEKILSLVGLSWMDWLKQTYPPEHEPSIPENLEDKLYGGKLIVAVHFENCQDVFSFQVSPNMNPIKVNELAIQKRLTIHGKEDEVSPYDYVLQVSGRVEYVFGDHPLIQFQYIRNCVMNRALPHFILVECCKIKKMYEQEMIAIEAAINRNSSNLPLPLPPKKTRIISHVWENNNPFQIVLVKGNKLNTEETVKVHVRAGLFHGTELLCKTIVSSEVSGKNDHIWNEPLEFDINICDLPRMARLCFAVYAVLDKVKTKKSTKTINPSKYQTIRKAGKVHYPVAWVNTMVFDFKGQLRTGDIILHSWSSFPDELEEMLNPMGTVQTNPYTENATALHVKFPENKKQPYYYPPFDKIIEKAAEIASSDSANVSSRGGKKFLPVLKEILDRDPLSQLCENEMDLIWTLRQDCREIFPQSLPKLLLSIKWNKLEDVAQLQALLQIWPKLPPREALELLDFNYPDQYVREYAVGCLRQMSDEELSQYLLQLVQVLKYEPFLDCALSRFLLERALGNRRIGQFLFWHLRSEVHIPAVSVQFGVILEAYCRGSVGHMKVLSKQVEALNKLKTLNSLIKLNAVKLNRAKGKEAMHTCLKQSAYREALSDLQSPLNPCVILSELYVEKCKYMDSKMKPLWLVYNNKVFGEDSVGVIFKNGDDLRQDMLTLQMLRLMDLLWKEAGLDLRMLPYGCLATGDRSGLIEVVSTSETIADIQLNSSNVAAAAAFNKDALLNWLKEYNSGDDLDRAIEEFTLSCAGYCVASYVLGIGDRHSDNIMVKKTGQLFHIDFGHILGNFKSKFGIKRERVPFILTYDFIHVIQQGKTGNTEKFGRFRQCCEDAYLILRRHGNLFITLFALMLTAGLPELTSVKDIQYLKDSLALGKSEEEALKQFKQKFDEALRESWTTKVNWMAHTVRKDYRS
Assay: KINOMEscan competition binding
Settings: compound 10.0 µM

molecule | test system | value unit | kinase still bound, per cent of control
COc1cc2ncnc(Nc3cccc(Cl)c3)c2cc1OC | PIK3CB (human) (UniProt P42338) | % | 47
CC1=C(C(=O)Nc2cc3cn[nH]c3cc2F)C(c2ccc(C(F)(F)F)cc2)CC(=O)N1 (stereo not drawn) | PIK3CB (human) (UniProt P42338) | % | 86
COc1cc(C)c(Sc2cnc(NC(=O)c3ccc(CNC(C)C(C)C)cc3)s2)cc1C(=O)N1CCN(C(C)=O)CC1 (stereo not drawn) | PIK3CB (human) (UniProt P42338) | % | 100

###

Parameter kinase still bound, per cent of control: see the listing below.
Biological target: UniProt Q9UBE8
Sequence (Q9UBE8 whole entry, looked up): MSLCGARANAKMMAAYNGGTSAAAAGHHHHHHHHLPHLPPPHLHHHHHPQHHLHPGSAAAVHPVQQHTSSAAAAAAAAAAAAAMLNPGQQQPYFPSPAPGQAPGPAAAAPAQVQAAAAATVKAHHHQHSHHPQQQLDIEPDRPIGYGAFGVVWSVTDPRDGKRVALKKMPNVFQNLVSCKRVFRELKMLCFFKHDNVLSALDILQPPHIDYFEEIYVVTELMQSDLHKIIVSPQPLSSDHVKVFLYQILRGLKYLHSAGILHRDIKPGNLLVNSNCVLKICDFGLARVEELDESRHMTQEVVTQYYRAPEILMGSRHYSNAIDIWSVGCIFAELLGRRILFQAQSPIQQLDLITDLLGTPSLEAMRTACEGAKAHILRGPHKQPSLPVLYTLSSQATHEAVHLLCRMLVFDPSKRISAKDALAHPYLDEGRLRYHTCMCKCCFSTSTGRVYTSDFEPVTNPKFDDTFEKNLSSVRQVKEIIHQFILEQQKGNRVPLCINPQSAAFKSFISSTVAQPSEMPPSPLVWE
Test: KINOMEscan competition binding
Conditions: compound 10.0 µM

compound | test system | kinase still bound, per cent of control [%]
COc1cc2ncnc(Nc3cccc(Cl)c3)c2cc1OC | UniProt Q9UBE8 | 43
COc1ccc(N(C(=O)Oc2cc(C(=O)Nc3cccc(C(F)(F)F)c3)ccc2C)c2ccnc(Nc3ccc(N4CCN(C)CC4)cc3)n2)c(OC)c1 | UniProt Q9UBE8 | 30
CC1=C(C(=O)Nc2cc3cn[nH]c3cc2F)C(c2ccc(C(F)(F)F)cc2)CC(=O)N1 (configuration not stated) | UniProt Q9UBE8 | 92
Cc1cn(-c2cc(C(=O)Nc3ccc(C)c(NC(=O)c4ccno4)c3)cc(C(F)(F)F)c2)cn1 | UniProt Q9UBE8 | 100
CCCS(=O)(=O)Nc1ccc(F)c(C(=O)c2c[nH]c3ncc(Cl)cc23)c1F | UniProt Q9UBE8 | 100
N#C/C(=C1/Nc2ccccc2S1)c1ccnc(NCCc2cccnc2)n1 | UniProt Q9UBE8 | 100
COc1cc(N2CCC(C(N)=O)CC2)ccc1Nc1nc(N)c(Cl)c(Nc2ccccc2S(=O)(=O)C(C)C)n1 | UniProt Q9UBE8 | 100
N#Cc1cc(-c2ccnc(Nc3ccc(-n4cnc(-c5cccnc5)n4)cc3)n2)cc(N2CCOCC2)c1 | UniProt Q9UBE8 | 76
O=c1[nH]c2ccccc2n1C1CCN(Cc2ccc(-c3nc4cc5[nH]cnc5cc4nc3-c3ccccc3)cc2)CC1 | UniProt Q9UBE8 | 87
CCc1nc(-c2cccc(C)c2)c(-c2ccnc(NC(=O)c3ccccc3)c2)s1 | UniProt Q9UBE8 | 4
CCOc1cc(N2CCC(O)CC2)ccc1Nc1ncc2c(n1)N(C)c1ccccc1C(=O)N2C | UniProt Q9UBE8 | 100
CCN1CCN(Cc2ccc(NC(=O)c3ccc(C)c(/C=C/c4cnc5[nH]ccc5c4OC)c3)cc2C(F)(F)F)CC1 | UniProt Q9UBE8 | 17
C=CC(=O)Nc1ccc(C(=O)c2sc(Nc3ccc(N4CCN(C)CC4)cc3OC)nc2N)cc1 | UniProt Q9UBE8 | 76
CNC(=O)Nc1ccc(-c2nc(N3CC4CCC(C3)O4)c3cnn(C4CCC5(CC4)OCCO5)c3n2)cc1 | UniProt Q9UBE8 | 85
CCN(CCO)CCCOc1ccc2c(Nc3cc(CC(=O)Nc4cccc(F)c4)[nH]n3)ncnc2c1 | UniProt Q9UBE8 | 100
COc1cc2c(Nc3ccc(NC(=O)c4ccccc4)cc3)ncnc2cc1OCCCN1CCOCC1 | UniProt Q9UBE8 | 100
COc1cc(C)c(Sc2cnc(NC(=O)c3ccc(CNC(C)C(C)C)cc3)s2)cc1C(=O)N1CCN(C(C)=O)CC1 (configuration not stated) | UniProt Q9UBE8 | 100
